Source listed as PubChem BioAssay.

- measurement notes: RPL19A-GFP modulators, yeast TOR pathway, confirmation, cell-based, S. cerevisiae, flow cytometry, cherry picks, mother/daughter gates (AID 2270)
- recorded conditions: S. cerevisiae RPL19A-GFP strain, 3 h, measured here: mother cell gate, at 10 µM, stronger effect = lower value, 100 = same GFP as DMSO wells
Kindly state GFP response vs DMSO for each of the entries shown.
Provide only the numeric value, understood in %.

Prompt: So what does the record say about GFP response vs DMSO for CCc1nnc(NC(=O)c2ccc(S(=O)(=O)N(CC)Cc3ccccc3)cc2)o1 ?
Completion: 98.8

Prompt: Next entry: N#C/C(=C/c1ccc(N2CCOCC2)o1)c1ccc(Br)cc1
Completion: 95

Prompt: Next entry: O=C(OCC(=O)N1CCN(C(=O)c2ccco2)CC1)c1cc(-c2ccccc2)nc2ccccc12
Completion: 70.5

Prompt: Next entry: CCOc1ccc(N/N=C(/C#N)C(N)=O)cc1
Completion: 81.8

Prompt: Next entry: CCOC(=O)C1CCCN(c2nc3c(C)cccn3c(=O)c2/C=C(\C#N)C(=O)NCc2ccco2)C1 (stereo not drawn)
Completion: 101

Prompt: Next entry: COc1ccc([N+](=O)[O-])c(S(=O)(=O)c2ccccc2)n1
Completion: 90.8

Prompt: Next entry: CCOc1ccc(C(Nc2cccnc2)c2cc(Cl)c3cccnc3c2O)cc1 (stereo not drawn)
Completion: 95.6

Prompt: Next entry: O=S(=O)(c1ccccc1)c1ccc(C(F)(F)F)cn1
Completion: 97.8

Prompt: Next entry: CN1CCN(CCCCOc2ccccc2C=O)CC1
Completion: 101

Prompt: Next entry: CCOc1ccc2nc(SCC(=O)NCC3CCCO3)c(C#N)cc2c1 (stereo not drawn)
Completion: 99.2

Prompt: Next entry: CC1CC2=C(CC1/C=N/NC(N)=S)C(C)(C)CCC2 (stereo not drawn)
Completion: 95.3

Prompt: Next entry: Cc1noc(/C=C/c2ccccn2)c1[N+](=O)[O-]
Completion: 90.8

Prompt: Next entry: O=C(O)C1CCC(NSc2ccccc2[N+](=O)[O-])CC1 (stereo not drawn)
Completion: 95.2

Prompt: Next entry: COc1ccc(CC(=O)NCc2ccccn2)cc1OC
Completion: 98

Prompt: Next entry: CC(=O)Nc1c(-c2ccc(F)cc2)nc2ccccn12
Completion: 95.8

Prompt: Next entry: CCc1cccc(C)c1NC(=O)CC1Oc2ccc(C)cc2NC1=O (stereo not drawn)
Completion: 100

Prompt: Next entry: CCc1nnc(NC(=O)c2nc(S(=O)(=O)Cc3ccccc3)ncc2Cl)s1
Completion: 91.4

Prompt: Next entry: O=C(Nc1nc(-c2ccccc2)cs1)c1cccnc1
Completion: 101

Prompt: Next entry: COC(=O)NC1CCC(CC2CCC(NC(=O)OC)CC2)CC1 (stereo not drawn)
Completion: 99.4

Prompt: Next entry: CCOc1cc(-c2nc3cc(C)ccn3c2NCC2CCCO2)ccc1O (stereo not drawn)
Completion: 101

Prompt: Next entry: CCn1c(=O)c(C(=O)Nc2ccccc2C)c(O)c2ccccc21
Completion: 97.9

Prompt: Next entry: O=C(COc1ccccc1)Nc1c2c(nn1-c1ccccc1)CS(=O)C2 (stereo not drawn)
Completion: 96.5

Prompt: Next entry: Cc1ccc(N2C(=O)C3C4C=CC(CNC(=S)Nc5ccc(F)cc5)(O4)C3C2=O)cc1 (stereo not drawn)
Completion: 97.5

Prompt: Next entry: O=C(Oc1c(Cl)cc(Cl)c2cccnc12)c1cccc([N+](=O)[O-])c1
Completion: 108

Prompt: Next entry: CCOc1ccccc1/C=C/C(=O)c1ccc(Cl)cc1
Completion: 98.5

Prompt: Next entry: CC(C)c1ccc(C2C3CSCC=C3C(C#N)=C(N)C2(C#N)C#N)cc1 (stereo not drawn)
Completion: 95.3

Prompt: Next entry: COc1ccc(CC2=C(O)c3ccccc3C(=O)C2=O)cc1
Completion: 96.1

Prompt: Next entry: O=[N+]([O-])c1ccc(SCCc2ccncc2)cc1
Completion: 95.4

###

- measurement notes: RPL19A-GFP modulators, yeast TOR pathway, confirmation, cell-based, S. cerevisiae, flow cytometry, cherry picks, mother/daughter gates (AID 2270)
- recorded conditions: S. cerevisiae RPL19A-GFP strain, 3 h, measured here: daughter cell gate, at 10 µM, stronger effect = lower value, 100 = same GFP as DMSO wells
endpoint label: GFP response vs DMSO (%)
Provide only the numeric value, understood in %.

Prompt: So what does the record say about GFP response vs DMSO for O=C(Nc1cc(F)c(Br)cc1F)c1ccc(Cl)cc1 ?
Completion: 93.3

Prompt: Next entry: CC(=O)Oc1c(C)cc(Cl)cc1C(=O)Nc1ccc([N+](=O)[O-])cc1Cl
Completion: 96

Prompt: Next entry: COC(=O)Nc1c(-c2ccccc2)nc2ccc(C)cn12
Completion: 98.7

Prompt: Next entry: COc1cccc(-c2nnc(NC(=O)c3ccc(S(=O)(=O)N4CC(C)OC(C)C4)cc3)o2)c1 (centres undefined)
Completion: 103

###

- measurement notes: modulators of MEP2-GFP levels in yeast, primary screen, S. cerevisiae, multiplex flow cytometry (AID 1867);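 also: median GFP channel fluorescence of barcode-gated MEP2-GFP cells measured by flow cytometry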
- recorded conditions: S. cerevisiae MEP2-GFP strain, 3 h, at 10 µM, stronger effect = higher value, 100% means same as DMSO wells
Inconclusive results are not listed. Peptide text beside a SMILES is read from it. * marks the point of attachment. Boc = CC(C)(C)OC(=O)*
endpoint label: GFP response vs DMSO (%)
Provide only the numeric value, understood in %.

Prompt: So what does the record say about GFP response vs DMSO for C/C(=N/N1CCN(Cc2cccc3ccccc23)CC1)c1cccnc1 ?
Completion: 102

Prompt: Next entry: CC(C)Oc1ccc(C(CC(=O)O)c2ccc(F)cc2)cc1 (stereo unspecified)
Completion: 108

Prompt: Next entry: CCN1CCN(C(=O)N[C@@H](C(=O)N[C@@H]2C(=O)N3[C@@H]2SC(C)(C)[C@@H]3C(=O)O)c2ccccc2)C(=O)C1=O
Completion: 122

Prompt: Next entry: CCN(CC)CCOC(=O)C1(C2CCCCC2)CCCCC1
Completion: 101

Prompt: Next entry: O=C(O)/C=C/c1ccc(O)c(O)c1
Completion: 104

Prompt: Next entry: COc1ccc(-c2cc3cc(OC)c(OC)cc3c(C)n2)cc1
Completion: 105

Prompt: Next entry: O=c1nc2cccc3c2=c(/c1=C(\O)c1ccccc1)c1ccccc1c3=O
Completion: 102

Prompt: Next entry: O=C(O)CC(O)C(=O)O (stereo unspecified)
Completion: 106

Prompt: Next entry: Clc1ccccc1CN1CCc2sccc2C1
Completion: 104

Prompt: Next entry: CC1COc2c(N3CCN(C)CC3)c(F)cc3c(=O)c(C(=O)O)cn1c23 (stereo unspecified)
Completion: 120

Prompt: Next entry: CC(C)(C)OC(=O)N1CCCC1C(=O)NC(Cc1ccccc1)C(=O)O (stereo not drawn) (Boc-Pro-Phe-OH; configuration not given here)
Completion: 98.9

Prompt: Next entry: Cc1ncc([N+](=O)[O-])n1CCO
Completion: 93.8

Prompt: Next entry: COc1ccc(C(=O)Nc2ccccc2C(=O)NCCCn2ccnc2)cc1
Completion: 115

Prompt: Next entry: C[C@@H]1C[C@H]2[C@@H]3CCC4=CC(=O)C=C[C@]4(C)[C@@]3(F)[C@@H](O)C[C@]2(C)[C@@]1(O)C(=O)COP(=O)(O)O
Completion: 98.9

Prompt: Next entry: CC(NC(=O)c1ccc(OC2CCN(Cc3ccccn3)CC2)cc1)c1ccccc1 (stereo unspecified)
Completion: 102

Prompt: Next entry: Cc1ccccc1OCC(O)CN1CCN(C)CC1 (stereo unspecified)
Completion: 115

Prompt: Next entry: Cc1ccccc1OCCSc1nc2ncnc(N)c2[nH]1
Completion: 105

Prompt: Next entry: CC(=O)O[C@H]1CSC[C@H]1NC(=O)c1ccccc1
Completion: 91.8

Prompt: Next entry: CCC1(c2ccccc2)C(=O)NCNC1=O
Completion: 94.1

Prompt: Next entry: COc1ccc(CNC(=O)C2CCN(C(=O)[C@@H](CC(C)C)NC(=O)OC(C)(C)C)CC2)cc1
Completion: 90.8

Prompt: Next entry: C/C=C/Cn1c(SC)nc2c1c(=O)[nH]c(=O)n2C
Completion: 101

Prompt: Next entry: COc1ccc(C2N3CC4(C)CN2CC(C)(C3)C4)cc1OC (stereo unspecified)
Completion: 99.9

Prompt: Next entry: O=S(=O)(NCCCCCNS(=O)(=O)c1ccccc1)c1ccccc1
Completion: 105

Prompt: Next entry: Cc1ccc(C(CC(=O)NCc2ccco2)c2ccc(OC(C)C)cc2)cc1 (stereo unspecified)
Completion: 106

Prompt: Next entry: COc1ccc(C2C(=O)c3ccccc3C2=O)cc1
Completion: 101

Prompt: Next entry: CN(C)CCOc1ccc(Cl)cc1C(C)(C)C
Completion: 98.5

Prompt: Next entry: CCOC(=O)c1cnc2ccccc2c1NCCO
Completion: 99.9

Prompt: Next entry: CC(=O)NC1C(OCCOc2ccc(Cl)cc2Cl)OC(COC(C)=O)C(OC(C)=O)C1OC(C)=O (stereo unspecified)
Completion: 102

Prompt: Next entry: COc1ccc2c(c1)C(=O)CC(c1ccccc1F)O2 (stereo unspecified)
Completion: 103

Prompt: Next entry: O=C(O)c1cccnc1
Completion: 105

Prompt: Next entry: CC(=O)Oc1ccc(C(=O)O)cc1OC(C)=O
Completion: 104
